# ASSAY TARGET: Cytochrome P450 2C19 (Homo sapiens)
# Sequence (P33261 whole entry): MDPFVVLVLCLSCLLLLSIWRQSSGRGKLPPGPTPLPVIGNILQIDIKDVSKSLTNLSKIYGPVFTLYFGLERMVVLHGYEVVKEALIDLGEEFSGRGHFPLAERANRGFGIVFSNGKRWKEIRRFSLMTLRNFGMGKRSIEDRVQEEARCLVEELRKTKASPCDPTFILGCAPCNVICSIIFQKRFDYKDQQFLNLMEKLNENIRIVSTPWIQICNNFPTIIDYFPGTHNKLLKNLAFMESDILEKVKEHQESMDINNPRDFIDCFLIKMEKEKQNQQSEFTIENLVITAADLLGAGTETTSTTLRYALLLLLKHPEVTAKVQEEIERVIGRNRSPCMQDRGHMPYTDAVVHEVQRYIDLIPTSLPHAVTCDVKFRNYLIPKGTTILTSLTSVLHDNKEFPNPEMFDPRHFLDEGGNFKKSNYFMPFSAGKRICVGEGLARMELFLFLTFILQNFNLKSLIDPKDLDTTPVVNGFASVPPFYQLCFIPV
# TEST: Cytochrome panel assay with activity outcomes. Panel member name: p450-cyp2c19 Compounds with AC50 equal or less than 10 uM are considered active
# Format: functional
# CONDITION: read-out: AC50
Entries and their AC50

Solved cases (3 shown):
Nc1ncncc1-c1ccc([N+](=O)[O-])cc1 : 10 µM (inconclusive)
COCCCN=C(S)NC1CC2CCCC(C1)N2Cc1cccs1 (stereo unspecified) : 1.26 µM (inconclusive)
CN1C(=O)NC(c2ccc(O)cc2)C(C(=O)c2cccs2)C1(O)C(F)(F)F (stereo unspecified) : 15.8 µM (inconclusive)

Kindly consider the entry below.
So the reported AC50 for C#CCOC(=O)NC(/C=C/CCCC)c1ccccc1 (stereo unspecified) , on Cytochrome P450 2C19 (Homo sapiens), turned out to be 25.1 µM (inconclusive)
